Below, each of the binders is paired with its reported IC50 (pM), inhibition of GM-CSF induced TF-1 proliferation (32 pM GM-CSF, average n = 3) value.
Target: human GM-CSF I117 isoform (human, UniProt P04141 18-144)
Sequence (P04141 18-144 limits assumed): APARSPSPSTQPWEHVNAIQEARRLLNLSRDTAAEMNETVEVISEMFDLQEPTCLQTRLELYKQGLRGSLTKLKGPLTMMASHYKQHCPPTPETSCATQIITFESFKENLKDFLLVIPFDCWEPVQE
Experiment: cell-based or functional assay
Give just the number in pM; leave the unit off.

Check out these entries, answers already filled in.
binder="humanized parental anti-GM-CSF 4K21 VH3-07.1AL+VK2-A3.2 hIgG1 K antibody (MSB0010439) (antibody, V domains shown, hIgG1 kappa; also called humanized parental 4K21 hVH hVL; humanized parental 4K21) VH: EVQLVESGGGLVQPGGSLRLSCAASGFAFSAYDMSWVRQAPGKRLELVAYISSGGSSFYYPDTVKGRFTISRDNAKNSLYLQMNSLRAEDTAVYYCTRHLGFDYWGQGTLVTVSS VL: DIVMTQSPLSLPVTPGEPASISCRSSQSLVNSNGNTYLHWYLQKPGQSPQLLIYKVSNRFSGVPDRFSGSGSGTDFTLKISRVEAEDVGVYYCSQSTHVPPTFGQGTKVEIK" measured_value=121
binder="4K21 hVH S55K-T62S hVL N28I-H34S-N53R-H93F (MSB0010628) (antibody, V domains shown, Tested as IgG ('optimized 4K21 IgGs'); the humanized parent is hIgG1 kappa; also called optimized 4K21 antibody; 4K21 (4K21 VH S55K-T62S VL N28I-H34S-N53R-H93F)) VH: EVQLVESGGGLVQPGGSLRLSCAASGFAFSAYDMSWVRQAPGKRLELVAYISSGGKSFYYPDSVKGRFTISRDNAKNSLYLQMNSLRAEDTAVYYCTRHLGFDYWGQGTLVTVSS VL: DIVMTQSPLSLPVTPGEPASISCRSSQSLVNSIGNTYLSWYLQKPGQSPQLLIYKVSRRFSGVPDRFSGSGSGTDFTLKISRVEAEDVGVYYCSQSTFVPPTFGQGTKVEIK" measured_value=18
binder="anti-GM-CSF 4K21 hIgG1 K antibody (MSB0010259), recombinant chimeric 4K21 (antibody, V domains shown, Murine variable domains fused to human constant IgG1 heavy chain and kappa light chain domains; also called parental chimeric 4K21) VH: EVQLVESGGGLVKSGGSLKLSCAASGFAFSAYDMSWVRQTPEKRLELVAYISSGGSSFYYPDTVKGRFTISRDNAKNTLYLQMSSLKSEDTAMYYCTRHLGFDYWGQGTTLTVSS VL: DVVMTQTPLSLPVSLGDQASISCRSSQSLVNSNGNTYLHWFLQKPGQSPKLLIYKVSNRFSGVPDRFSGSGSGTDFTLKISRVEAEDLGVYFCSQSTHVPPTFGGGTKLEIK" measured_value=130

// moving on: another record for IC50 (pM), inhibition of GM-CSF induced TF-1 proliferation (32 pM GM-CSF, average n = 3)
Which IC50 (pM), inhibition of GM-CSF induced TF-1 proliferation (32 pM GM-CSF, average n = 3) is reported for this binder? 4K21 hVH S55K-T62S hVL S27eY-N28I-H34S-N53R-H93F (MSB0010629) (antibody, V domains shown, Tested as IgG ('optimized 4K21 IgGs'); the humanized parent is hIgG1 kappa; also called optimized 4K21 antibody with S27eY; 4K21 (4K21 VH S55K-T62S VL S27eY-N28I-H34S-N53R-H93F)) VH: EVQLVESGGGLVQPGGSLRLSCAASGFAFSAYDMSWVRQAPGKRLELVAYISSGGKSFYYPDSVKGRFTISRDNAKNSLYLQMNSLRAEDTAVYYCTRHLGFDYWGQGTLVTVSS VL: DIVMTQSPLSLPVTPGEPASISCRSSQSLVNYIGNTYLSWYLQKPGQSPQLLIYKVSRRFSGVPDRFSGSGSGTDFTLKISRVEAEDVGVYYCSQSTFVPPTFGQGTKVEIK
28
